The measured values listed here are drawn from patent US8153134.

Target: T1, hMDL-1-hIG (human, UniProt Q9NY25 28-188)
T1 construct: Fusion of human MDL-1 with human Ig used in the BIAcore assay; MDL-1 is a type II membrane protein, so the Ig part may stand N-terminal; also called MDL-1-hIg ligand; not shown: human Ig part (hIG)
T1 sequence: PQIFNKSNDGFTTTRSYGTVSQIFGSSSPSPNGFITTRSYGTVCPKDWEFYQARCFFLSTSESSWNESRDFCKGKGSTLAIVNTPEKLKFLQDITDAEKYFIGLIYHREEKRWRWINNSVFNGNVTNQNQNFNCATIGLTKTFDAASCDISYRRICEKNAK
Assay: BIAcore SPR; hMDL-1-hIG as capture antigen on the chip, mAb as analyte; apparent Kd
pKd: −log10 of the molar value.
endpoint: pKd

• DX230 (antibody, V domains shown, Rodent anti-human MDL-1 monoclonal antibody from a hybridoma; VL of the kappa subclass; also called anti-MDL-1 antibody clone DX230; ATCC PTA-8373) VH: EVQLVESGGDLVKPGGSLKLSCAASGFAFSNYDMSWVRQTPEKRLEWVAYISGGGGTTYYSDTVKGRFTISRDNAKNTLYLQMSSLKSEDTAMYYCVRHAVYYGKPYWGQGTTLTVSS VL: DIVLTQSPPSLAVSLGQRATVSCRASESVEHYGTGLMQWYQQKPGQPPRLLIYAASNVESGVPARFSGSGSGTDFSLNIHPVEEDDIAMYFCQQSRKVPWTFGGGTKLEIKR = 7.60
